- tested system: α2AAR-cam (Mus musculus)
- Construct: expressed in transfected cells; GIRK1 and GIRK4 co-transfected in A8)
- assay protocol: [3H]UK14304 binding to membranes containing α2AAR-cam with exogenous Go protein
- test parameters: exogenous Go (receptor:Go 1:100), without GTPγS; read-out: Kd of agonist binding
pKd: −log10 of the molar value.
endpoint name: pKd

| compound | readout number |
| --- | --- |
| Brc1c(NC2=NCCN2)ccc2nccnc12 | 8.47 |

====

- tested system: UniProt Q01338
pKi: −log10 of the molar value.
endpoint name: pKi

| compound | readout number |
| --- | --- |
| NC[C@H](O)c1ccc(O)c(O)c1 [noradrenaline] | 5.30 |

====

- tested system: α2AAR-cam (Mus musculus, UniProt Q01338)
- Construct: expressed in transfected cells; GIRK1 and GIRK4 co-transfected in A8)
- assay protocol: [3H]UK14304 binding to membranes containing α2AAR-cam with exogenous Go protein
- test parameters: exogenous Go, in presence of 10 μM GTPγS; read-out: Kd of agonist binding
- Protocol: Pharmacology. […] Saturation and competition binding studies were analysed with the program Prism to calculate KD- and Ki-values. Third, binding of G-proteins to receptors is known to enhance formation of the active, agonist-bound state.

| compound | Kd |
| --- | --- |
| Brc1c(NC2=NCCN2)ccc2nccnc12 | 9.6 nM |
